A collection of binders and their measured EC50
Biological target: T1, wild type, full length human TNFR2 (on cells) (human, UniProt P20333 23-461)
T1 construct: whole, on cells; also called hTNFR2; TNFRII
T1 sequence (looked up): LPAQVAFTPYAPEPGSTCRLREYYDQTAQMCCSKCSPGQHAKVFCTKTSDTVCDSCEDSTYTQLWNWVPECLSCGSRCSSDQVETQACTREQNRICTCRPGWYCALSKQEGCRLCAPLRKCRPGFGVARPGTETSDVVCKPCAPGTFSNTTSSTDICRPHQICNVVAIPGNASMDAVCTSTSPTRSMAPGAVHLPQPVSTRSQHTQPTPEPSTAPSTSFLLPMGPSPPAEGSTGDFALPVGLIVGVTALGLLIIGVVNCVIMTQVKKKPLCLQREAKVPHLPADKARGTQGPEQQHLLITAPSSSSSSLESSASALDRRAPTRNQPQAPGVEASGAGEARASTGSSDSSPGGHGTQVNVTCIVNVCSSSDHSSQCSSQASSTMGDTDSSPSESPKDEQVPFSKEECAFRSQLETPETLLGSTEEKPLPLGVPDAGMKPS
Experiment: FACS, activated CD4+ T cells
Give the quantity in nM, number only.

>>> meas_value("001-C03 (antibody, V domains shown, IgG; also called 1-003; 001-0O3) VH: EVQLLESGGGLVQPGGSLRLSCAASGFTFSNAWMSWVRQAPGKGLEWVSAISVSGINTYYADSVKGRFTISRDNSKNTLYLQMNSLRAEDTAVYYCARDTGSLGVDYWGQGTLVTVSS VL: QSVLTQPPSASGTPGQRVTISCSGSSSNIGSNTVNWYQQLPGTAPKLLIYRNNQRPSGVPDRFSGSKSGTSASLAISGLRSEDEADYYCQSYDSSLSISVFGGGTKLTVLG")
53
>>> meas_value("001-G10 (antibody, V domains shown, IgG) VH: EVQLLESGGGLVQPGGSLRLSCAASGFTFSAYGMHWVRQAPGKGLEWVAVVSYDGREKHYADSVKGRFTISRDNSKNTLYLQMNSLRAEDTAVYYCARSDGGYDSDSGYYWGQGTLVTVSS VL: QSVLTQPPSASGTPGQRVTISCSGSTSNIGSNFVYWYQQLPGTAPKLLIYDNNKRPSGVPDRFSGSKSGTSASLAISGLRSEDEADYYCSSYAYSDNILFGGGTKLTVLG")
3.3
>>> meas_value("001-F06 (antibody, V domains shown, IgG) VH: EVQLLESGGGLVQPGGSLRLSCAASGFTFSSYAMHWVRQAPGKGLEWVSAISGGATTTYYADSVKGRFTISRDNSKNTLYLQMNSLRAEDTAVYYCAKGGTGDPYYFDYWGQGTLVTVSS VL: QSVLTQPPSASGTPGQRVTISCTGSSSNIGAGYDVHWYQQLPGTAPKLLIYRNNQRPSGVPDRFSGSKSGTSASLAISGLRSEDEADYYCAARDDGLSGPVFGGGTKLTVLG")
2.5

Now take the following binder into account.
Tell me measured EC50 for 001-A09 (antibody, V domains shown, IgG) VH: EVQLLESGGGLVQPGGSLRLSCAASGFTFSSNYMSWVRQAPGKGLEWVSVISGSGGSTYYADSVKGRFTISRDNSKNTLYLQMNSLRAEDTAVYYCARDRGWFDPWGQGTLVTVSS VL: QSVLTQPPSASGTPGQRVTISCSGSRSNIDNSYVSWYQQLPGTAPKLLIYRNNQRPSGVPDRFSGSKSGTSASLAISGLRSEDEADYYCATWDDSLSGPVFGGGTKLTVLG please.
48

Each recorded value in this set is attributed to patent US20220002426A1.
